Listed here: items and their measured Grade of pulmonary fibrosis (total score divided by total number of specimens).
Tested on: ICR mice
Measurement protocol: Pulmonary toxicity (fibrosis of the lung) in mice
Study conditions: 5 mg/kg i.p. once daily for 10 days, autopsy after 5 weeks; scores 0, 1, 2, 4, 6 points; value in parentheses

{"Molecule": "Cc1c(N)nc(C(CC(N)=O)NCC(N)C(N)=O)nc1C(=O)NC(C(=O)NC(C)C(O)C(C)C(=O)NC(C(=O)NCCc1nc(-c2nc(C(=O)NCCCN(CCCCN(Cc3ccc(Cl)c(Cl)c3)Cc3ccc(Cl)c(Cl)c3)Cc3ccc(Cl)c(Cl)c3)cs2)cs1)C(C)O)C(OC1OC(CO)C(O)C(O)C1OC1OC(CO)C(O)C(OC(N)=O)C1O)c1cnc[nH]1 (stereo not drawn) [Compound 3]", "Reported value": 0}

In plain terms, COc1ccc(CN(CCCCN(Cc2ccc(OC)cc2)Cc2ccc(OC)cc2)CCCNC(=O)c2csc(-c3csc(CCNC(=O)C(NC(=O)C(C)C(O)C(C)NC(=O)C(NC(=O)c4nc(C(CC(N)=O)NCC(N)C(N)=O)nc(N)c4C)C(OC4OC(CO)C(O)C(O)C4OC4OC(CO)C(O)C(OC(N)=O)C4O)c4cnc[nH]4)C(C)O)n3)n2)cc1 (stereo not drawn) [Compound 4] has a documented Grade of pulmonary fibrosis (total score divided by total number of specimens) of 0

In plain terms, CCCCCN(CCCCC)CCCCN(CCCCC)CCCNC(=O)c1csc(-c2csc(CCNC(=O)C(NC(=O)C(C)C(O)C(C)NC(=O)C(NC(=O)c3nc(C(CC(N)=O)NCC(N)C(N)=O)nc(N)c3C)C(OC3OC(CO)C(O)C(O)C3OC3OC(CO)C(O)C(OC(N)=O)C3O)c3cnc[nH]3)C(C)O)n2)n1 (stereo not drawn) [Compound 9] has a documented Grade of pulmonary fibrosis (total score divided by total number of specimens) of 0
